# System name: CFTR (Homo sapiens, UniProt P13569, DEL508-508)
# Construct: endogenous in cells; host or cells: primary human bronchial epithelial cells from CF subjects (F508del/MF-HBE), differentiated at air-liquid interface
# Sequence (P13569 with tags, fused parts or gaps DEL508-508): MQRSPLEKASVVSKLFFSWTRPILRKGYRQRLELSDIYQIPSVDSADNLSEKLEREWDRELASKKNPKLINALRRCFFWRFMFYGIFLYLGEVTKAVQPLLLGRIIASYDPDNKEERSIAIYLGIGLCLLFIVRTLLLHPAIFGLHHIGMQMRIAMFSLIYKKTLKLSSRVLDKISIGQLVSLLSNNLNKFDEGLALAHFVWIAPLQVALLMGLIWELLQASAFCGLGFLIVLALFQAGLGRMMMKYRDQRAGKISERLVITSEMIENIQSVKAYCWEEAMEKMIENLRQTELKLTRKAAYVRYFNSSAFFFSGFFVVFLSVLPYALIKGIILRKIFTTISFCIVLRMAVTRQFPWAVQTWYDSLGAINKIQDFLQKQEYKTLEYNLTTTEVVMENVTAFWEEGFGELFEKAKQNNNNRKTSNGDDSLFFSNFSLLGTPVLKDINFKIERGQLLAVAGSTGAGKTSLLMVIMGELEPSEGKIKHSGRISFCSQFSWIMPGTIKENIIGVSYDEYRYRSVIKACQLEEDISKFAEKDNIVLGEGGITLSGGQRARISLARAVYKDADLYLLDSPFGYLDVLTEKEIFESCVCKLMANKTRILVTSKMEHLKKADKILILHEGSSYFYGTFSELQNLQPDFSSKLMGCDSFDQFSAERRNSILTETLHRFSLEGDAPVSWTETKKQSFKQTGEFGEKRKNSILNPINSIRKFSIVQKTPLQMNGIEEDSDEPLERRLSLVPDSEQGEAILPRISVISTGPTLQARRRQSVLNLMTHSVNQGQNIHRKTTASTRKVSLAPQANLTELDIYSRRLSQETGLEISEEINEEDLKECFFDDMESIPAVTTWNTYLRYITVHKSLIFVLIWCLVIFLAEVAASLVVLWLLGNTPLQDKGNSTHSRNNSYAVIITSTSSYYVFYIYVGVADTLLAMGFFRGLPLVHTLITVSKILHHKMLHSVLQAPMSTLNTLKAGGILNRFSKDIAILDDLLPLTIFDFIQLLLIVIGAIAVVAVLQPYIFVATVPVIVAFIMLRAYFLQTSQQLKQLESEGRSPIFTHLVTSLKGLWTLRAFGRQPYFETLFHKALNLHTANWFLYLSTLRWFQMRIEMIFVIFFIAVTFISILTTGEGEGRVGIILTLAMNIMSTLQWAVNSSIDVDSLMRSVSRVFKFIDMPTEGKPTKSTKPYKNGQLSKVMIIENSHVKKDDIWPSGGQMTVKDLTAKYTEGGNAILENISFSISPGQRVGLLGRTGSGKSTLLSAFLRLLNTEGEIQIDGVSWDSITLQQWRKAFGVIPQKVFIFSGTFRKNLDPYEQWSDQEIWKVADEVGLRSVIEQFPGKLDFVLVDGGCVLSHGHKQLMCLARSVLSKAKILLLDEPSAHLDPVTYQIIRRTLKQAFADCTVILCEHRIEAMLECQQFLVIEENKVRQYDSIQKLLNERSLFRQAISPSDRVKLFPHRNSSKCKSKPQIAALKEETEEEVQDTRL
# Experiment description: HBE assay: Ussing chamber assay of CFTR-mediated short-circuit currents
# Type: cell-based
# Details: Table 11; read-out: HBE Max Activity (%)
Measured parameter: Emax

The following molecules have reported results that may help.
[[record]]
item_smiles = "Cc1cccc(C)c1-c1cc2nc(n1)NS(=O)(=O)c1cccc(c1)C(=O)N(Cc1ccc(C3CCOCC3)cn1)[C@H](CC(C)(C)C)CO2"
experimental_result = "> 60%"

[[record]]
item_smiles = "Cc1cccc(C)c1-c1cc2nc(n1)NS(=O)(=O)c1cccc(c1)C(=O)N(Cc1nccc(N3CCC[C@H]3C)n1)[C@H](CC(C)(C)C)CO2"
experimental_result = "> 60%"


Let's switch to this molecule now.
State, in one line, measured Emax of `Cc1cccc(C)c1-c1cc2nc(n1)NS(=O)(=O)c1cccc(c1)C(=O)N(Cc1cccc(N3CCCC3)n1)[C@H](CC(C)(C)C)CO2`
> 60%

###

# System name: CFTR (Homo sapiens)
# Experiment description: Membrane potential dye, Enteroid Assay A
# Assay type: cell-based
# Details: Table 7; chloride transport as % of triple combination control (Enteroid Assay A)
Measured parameter: Ent. A Max Activity

Take a look at these entries with their results.
[[record]]
molecule = "Cc1cccc(C)c1-c1cc2nc(n1)NS(=O)(=O)c1cccc(c1)CN(CCCC1(C(F)(F)F)CC1)[C@H](CC(C)C)CO2 [Compound 1023]"
system_name = "CFTR (Homo sapiens)"
measured_parameter = "Ent. A Max Activity"
experimental_result = "++ (++ is 30-60%)"

[[record]]
molecule = "Cc1cccc(C)c1-c1cc2nc(n1)NS(=O)(=O)c1cccc(c1)CN(CCn1c(=O)oc3ccccc31)[C@H](CC(C)C)CO2 [Compound 1039]"
system_name = "CFTR (Homo sapiens)"
measured_parameter = "Ent. A Max Activity"
experimental_result = "++ (++ is 30-60%)"

[[record]]
molecule = "Cc1cccc(C)c1-c1cc2nc(n1)NS(=O)(=O)c1cccc(c1)CN(CCC(F)(F)F)[C@H](CC(C)C)CO2 [Compound 1021]"
system_name = "CFTR (Homo sapiens)"
measured_parameter = "Ent. A Max Activity"
experimental_result = "++ (++ is 30-60%)"

[[record]]
molecule = "Cc1cccc(C)c1-c1cc2nc(n1)NS(=O)(=O)c1cccc(c1)C(=O)N(CCC(C1CC1)C1CC1)[C@H](CC(C)C)CO2 [Compound 413]"
system_name = "CFTR (Homo sapiens)"
measured_parameter = "Ent. A Max Activity"
experimental_result = "+++ (+++ is >60%)"

[[record]]
molecule = "Cc1cccc(C)c1-c1cc2nc(n1)NS(=O)(=O)c1cccc(c1)C(=O)N(C)C[C@H](c1ccc(C3CC3)cc1)O2 [Compound 669]"
system_name = "CFTR (Homo sapiens)"
measured_parameter = "Ent. A Max Activity"
experimental_result = "++ (++ is 30-60%)"


Fill in Ent. A Max Activity for record COC1CCN(c2ccc(CN3C(=O)c4cccc(c4)S(=O)(=O)Nc4nc(cc(-c5c(C)cccc5C)n4)OC[C@H]3CC(C)C)cn2)CC1 [Compound 971]
+++ (+++ is >60%)

Supply reported Ent. A Max Activity belonging to this molecule: Cc1cccc(C)c1-c1cc2nc(n1)NS(=O)(=O)c1cccc(c1)CN(CCc1ccccc1)[C@H](CC(C)C)CO2 [Compound 1040]
++ (++ is 30-60%)

Quick one: give measured Ent. A Max Activity for CCOc1cc(CN2Cc3cccc(c3)S(=O)(=O)Nc3nc(cc(-c4c(C)cccc4C)n3)OC[C@H]2CC(C)C)ccc1OC [Compound 1038]
++ (++ is 30-60%)

Input Cc1cccc(C)c1-c1cc2nc(n1)NS(=O)(=O)c1cccc(c1)CN(Cc1cc(C)c3[nH]ncc3c1)[C@H](CC(C)C)CO2 [Compound 1027] , output reported Ent. A Max Activity.
+++ (+++ is >60%)

For the molecule CCCC(=O)N1Cc2cccc(c2)S(=O)(=O)Nc2nc(cc(-c3c(C)cccc3C)n2)OC[C@H]1CC(C)C [Compound 1052] , give its measured Ent. A Max Activity value.
++ (++ is 30-60%)
